tested on: HEK-293T; assay: Incucyte cell viability with HEK293T; type: toxicity, cell-based; settings: human, 12 h, 10 µM, compound concentration 10 uM, replicate number 1, timepoint 12 hours; further: filed as whole numbers so only -1 and 0 and 1 occur
Known Growth Rate of a selection of compounds
// no unit string in output, number only

Some compounds with known Growth Rate results, for comparison:
C[C@@H]1CN(c2cc(-c3nn(C)c4ccc(OC5(C)CC5)cc34)ncn2)C[C@H](C)O1 [MLi-2-NC]; 0
COc1ccccc1C(=O)Nc1cc2c(cc1N1CCCC1)n(C)c(=O)n2C; 1
CN1CC(=O)N=C1NC(=O)Nc1cccc(Cl)c1 [FENOBAM ANHYDROUS]; 1
N#Cc1ccccc1OCC(O)CNCCNC(=O)Nc1ccccc1 (configuration not stated) [ICI-89406]; 0
CN(C)C/C=C/C(=O)Nc1cc2c(Nc3ccc(F)c(Cl)c3)ncnc2cc1O[C@H]1CCOC1.O=C(O)/C=C\C(=O)O.O=C(O)/C=C\C(=O)O [AFATINIB DIMALEATE]; 0
C[C@@H]1CCc2ncc(F)cc2[C@H]2CCCN2c2ccn3ncc(c3n2)C(=O)N1 [SELITRECTINIB]; 0
Cc1cc(NC(=O)Nc2ccc(N(C)C)cc2)c2cc(F)cc(F)c2n1; 0
CCc1cc2c(c(CC)n1)CCC(=O)N2Cc1ccc(-c2ccccc2-c2nnn[nH]2)cc1.Cl; 1
CN(C)CCCn1cc(C2=C(c3c[nH]c4ccccc34)C(=O)NC2=O)c2ccccc21 [GF-109203]; 0
Clc1cc2c(NC3CCCC3)nnc(-c3ccncc3)c2cc1Cl; 1

Return Growth Rate (reported value) for this compound: CN(C)CC[C@@H](c1ccc(Cl)cc1)c1ccccn1.O=C(O)/C=C\C(=O)O [DEXCHLORPHENIRAMINE MALEATE]
1

Return Growth Rate (reported value) for this compound: FC(F)c1nc2ccccc2n1-c1nc(N2CCOCC2)nc(N2CCOCC2)n1 [ZSTK-474]
0

Return Growth Rate (reported value) for this compound: CCCCc1nc(Cl)c(CO)n1Cc1ccc(-c2ccccc2-c2nn[nH]n2)cc1 [LOSARTAN]
1

Return Growth Rate (reported value) for this compound: `CN(CCOc1ccc(C[C@H](Nc2ccccc2C(=O)c2ccccc2)C(=O)O)cc1)c1ccccn1.O`
1

Return Growth Rate (reported value) for this compound: `CNc1nc(Nc2cnn([C@H]3CCN(C4COC4)C[C@@H]3F)c2Cl)ncc1C(F)(F)F`
0

Return Growth Rate (reported value) for this compound: CCCCN(CCCC)C(=O)CN1C[C@@H](c2cc(OC)c3c(c2)OCO3)[C@H](C(=O)O)[C@H]1CC(C)(C)CCC [A-545]
0

Return Growth Rate (reported value) for this compound: `Cl.Cl.Nc1ncnc2c1c(-c1cccc(OCc3ccccc3)c1)cn2[C@H]1C[C@@H](CN2CCC2)C1`
0

----------
tested on: Fibroblast; test: Multiplex assay against human fibroblast; type: toxicity, cell-based; details: 12 h, 1 µM, compound concentration 1 uM, replicate 1
reportedMetric: Population Normal (%)

Some compounds with known Population Normal (%) results, for comparison:
CCOc1cc(N2CCC(O)CC2)ccc1Nc1ncc2c(n1)N(C1CCCC1)CCC(=O)N2C; 87%
CC(C)Oc1ccc(C(=O)N[C@H](CNC(=O)CN(C)C)Cc2ccc(-c3cn4cccc([C@H](C)O)c4n3)cc2)cc1Cl [GSK-923295A]; 87%

Please examine the following record next.
Return Population Normal (%) (reported value) for this compound: `CNc1oc(-c2cccc3ccccc23)nc1C#N`
29%

----------
system: Fibroblast; assay: Multiplex assay against human fibroblast; format: toxicity, cell-based; conditions: 48 h, 10 µM, compound concentration 10 uM, replicate 2
reportedMetric: Population Normal (%)
The answer is to be given in %; state only the numeric part.

Some molecules with known Population Normal (%) results, for comparison:
O=C(O)c1ccc2cc(-c3ccc(O)c(C45CC6CC(CC(C6)C4)C5)c3)ccc2c1; 85
CCC(=O)O[C@]1(C(=O)SCF)[C@H](C)C[C@H]2[C@@H]3C[C@H](F)C4=CC(=O)C=C[C@]4(C)[C@@]3(F)[C@@H](O)C[C@@]21C [FLUTICASONE PROPIONATE]; 64
Cl.Cl.Nc1ncnc2c1c(-c1cccc(OCc3ccccc3)c1)cn2[C@H]1C[C@@H](CN2CCC2)C1; 52
CCc1cc2c(cc1CC)CC(NC[C@H](O)c1ccc(O)c3[nH]c(=O)ccc13)C2; 62
COc1ccc(NS(=O)(=O)c2sc3ccc(Cl)cc3c2C)cc1N1CCNCC1.Cl; 75

Return Population Normal (%) (reported value) for this molecule: `COc1cc(N2CCC(N(C)C)CC2)ccc1Nc1ncc(Cl)c(Nc2ccccc2P(C)(C)=O)n1`
83

Return Population Normal (%) (reported value) for this molecule: `COc1cc2c(NC3CCN(C(C)C)CC3)nc(N3CCC(F)(F)CC3)nc2cc1OCCCN1CCCC1`
52

Return Population Normal (%) (reported value) for this molecule: CC(C)Oc1ccc(C(=O)N[C@H](CNC(=O)CN(C)C)Cc2ccc(-c3cn4cccc([C@H](C)O)c4n3)cc2)cc1Cl [GSK-923295A]
64

----------
test system: HEK-293T; assay: Incucyte cell viability with HEK293T; assay type: toxicity, cell-based; conditions: human, 24 h, 10 µM, compound concentration 10 uM, replicate number 2, timepoint 24 hours; further: filed as whole numbers so only -1 and 0 and 1 occur
Known Growth Rate of a selection of compounds

Some compounds with known Growth Rate results, for comparison:
CCOC(=O)c1cc(C#N)c(N2CCC(C(=O)NS(=O)(=O)Cc3ccccc3)CC2)nc1C; 1
CC(C)CC(=O)N1CCc2nc(-c3ccc(Br)cc3)nc(N(C)Cc3ccccc3)c2C1; 0
CNc1cc2[nH]c(=O)n(-c3ccc(NC(=O)NS(=O)(=O)c4ccc(Cl)s4)cc3)c(=O)c2cc1F; 1
O=C(Nc1cccc2c(=O)cc(-c3nnn[nH]3)oc12)c1ccc(OCCCCc2ccccc2)cc1; 1
CN(CCOc1ccc(C[C@H](Nc2ccccc2C(=O)c2ccccc2)C(=O)O)cc1)c1ccccn1.O; 0
CCCCc1nc(Cl)c(CO)n1Cc1ccc(-c2ccccc2-c2nn[nH]n2)cc1; 0

Enter Growth Rate (test system HEK-293T) for `CCCCN(CCCC)C(=O)CN1C[C@@H](c2ccc3c(c2)OCO3)[C@H](C(=O)O)[C@H]1c1ccc(OC)cc1`
0

Enter Growth Rate (test system HEK-293T) for `O=C(NOC[C@H](O)CO)c1ccc(F)c(F)c1Nc1ccc(I)cc1F`
1

----------
tested on: Fibroblast; assay: Incucyte cell viability with human fibroblast; format: toxicity, cell-based; conditions: 0 h, 10 µM, compound concentration 10 uM, replicate number 2, timepoint 0 hours; further: filed as whole numbers so only -1 and 0 and 1 occur
Known Growth Rate of a selection of molecules
// no unit string in output, number only

FC(F)c1nc2ccccc2n1-c1nc(N2CCOCC2)nc(N2CCOCC2)n1; 0
Nc1nc(NCCc2ccc(O)cc2)nc2nc(-c3ccco3)nn12; 1
CCC(=O)N1CC[C@H](Nc2ncnc3c2CN(c2cnc(OC)c(C(F)(F)F)c2)CC3)C1; 1
Cc1c(Oc2ccc(F)cc2)c(OC(C)C)nn1-c1ccc(C2CC2)cn1; 0
CCCCN(CCCC)C(=O)CN1C[C@@H](c2cc(OC)c3c(c2)OCO3)[C@H](C(=O)O)[C@H]1CC(C)(C)CCC.Cl; 0

Return Growth Rate (reported value) for this molecule: `CC1=C(C#N)C(c2ccc3c(c2)c(NC(=O)c2ccccc2C)nn3C)C(C#N)=C(C)N1`
0

Return Growth Rate (reported value) for this molecule: `CCN(CC)CCCCC1CCN(CC(=O)N2c3ccccc3C(=O)Nc3cccnc32)CC1`
1

Return Growth Rate (reported value) for this molecule: `C[C@@H]1CN(c2cc(-c3nn(C)c4ccc(OC5(C)CC5)cc34)ncn2)C[C@H](C)O1`
0

Return Growth Rate (reported value) for this molecule: `Cc1nc(C#Cc2ccnc(Cl)c2)c(C)n1-c1ccc(OC(F)(F)F)cc1`
0

Return Growth Rate (reported value) for this molecule: CC(C)Oc1ccc(C(=O)N[C@H](CNC(=O)CN(C)C)Cc2ccc(-c3cn4cccc([C@H](C)O)c4n3)cc2)cc1Cl [GSK-923295A]
1

Return Growth Rate (reported value) for this molecule: CN(C)C/C=C/C(=O)Nc1cc2c(Nc3ccc(F)c(Cl)c3)ncnc2cc1O[C@H]1CCOC1.O=C(O)/C=C\C(=O)O.O=C(O)/C=C\C(=O)O [AFATINIB DIMALEATE]
1

Return Growth Rate (reported value) for this molecule: `CC(=O)c1cc(-c2cc(C(=O)NC3CC3)ccc2C)c2ncccn12`
1

Return Growth Rate (reported value) for this molecule: `Cc1cn(-c2cc(NC(=O)c3ccc4c(c3)CN(c3cncnc3)C[C@@H]4C)cc(C(F)(F)F)c2)cn1`
0

Return Growth Rate (reported value) for this molecule: `C[C@@H]1CCc2ncc(F)cc2[C@H]2CCCN2c2ccn3ncc(c3n2)C(=O)N1`
0

Return Growth Rate (reported value) for this molecule: `Cc1cc2c(cc1N1C(=O)c3cccc4c(CCCO)ccc(c34)C1=O)n(C)c(=O)n2C`
0

Return Growth Rate (reported value) for this molecule: `CCCOc1ccc([C@@H]2[C@@H](C(=O)O)[C@H](c3ccc4c(c3)OCO4)CN2CC(=O)Nc2c(CC)cccc2CC)cc1`
1

Return Growth Rate (reported value) for this molecule: `CC(=O)[C@@]1(O)CC[C@H]2[C@@H]3C[C@H](C)C4=CC(=O)CC[C@]4(C)[C@H]3CC[C@@]21C`
0

Return Growth Rate (reported value) for this molecule: `CNc1cc2[nH]c(=O)n(-c3ccc(NC(=O)NS(=O)(=O)c4ccc(Cl)s4)cc3)c(=O)c2cc1F`
1

Return Growth Rate (reported value) for this molecule: `Cc1cnc(-c2cc(Cl)ccc2F)cc1-n1c(=O)n(CC(N)=O)c2cnccc21`
0

Return Growth Rate (reported value) for this molecule: N#Cc1ccc(Nc2ccc3[nH]c(=O)[nH]c3c2)c(Cl)c1 [TP-021n]
1

Return Growth Rate (reported value) for this molecule: CCC1(C2=NCCN2)Cc2ccccc2O1 (stereo not given)
1

Return Growth Rate (reported value) for this molecule: `COc1cc(N2CCC(N(C)C)CC2)ccc1Nc1ncc(Cl)c(Nc2ccccc2P(C)(C)=O)n1`
0

Return Growth Rate (reported value) for this molecule: `O=C(NC[C@H](O)CN1CCc2ccccc2C1)c1ccnc(NC2CCC2)c1`
0

Return Growth Rate (reported value) for this molecule: `CO[C@@H]1COCC[C@@H]1N[C@@H]1CC[C@@](C(=O)N2CCc3ncc(C(F)(F)F)cc3C2)(C(C)C)C1`
1

Return Growth Rate (reported value) for this molecule: `O=C(Nc1cccc2c(=O)cc(-c3nnn[nH]3)oc12)c1ccc(OCCCCc2ccccc2)cc1`
1
